# Tested on: human ABCB11 mRNA
# test method notes: ASO treatment of primary human hepatocytes (PHH), ABCB11 mRNA by RT-qPCR normalized to B2M
# Type: cell-based
# test settings: primary human hepatocytes, 5 μM ASO, normalized to untreated PHHs (UNT)
# Method: Primary human hepatocytes (PHH) were thawed using Lonza Human Cryopreserved Hepatocyte Thawing Medium and plated in 96-well collagen-coated plates (5.5-6.0×10^4 cells per well). […] 2 μl of cDNA was used for reverse transcription-quantitative PCR (RT-qPCR) analyses using standard Taqman” reagents from Applied Biosystems™ to measure ABCB11 and CYP7A1 gene expression. […]
Strand notation (5' to 3'): a small letter for the sugar, then the base; units joined by * are phosphorothioate-linked, units joined directly phosphodiester-linked; [ ] holds rarer units or linkages, { } end groups; capitals alone tell only the bases. e = 2'-O-(2-methoxyethyl) (MOE); l = locked nucleic acid (LNA); [5mC] = 5-methylcytosine; d = 2'-deoxy (DNA)
quantity kind: ABCB11 mRNA FC (5 μM ASO vs. UNT) (fold change)
All answers are understood in fold change, so give the number only.

substance: CO-7186: derivative ASO with additional chemical modifications based on parent ASO CO-4535 (antisense eT*eG*eG*l[5mC]*eG*dT*dT*lA*dT*dT*dA*lA*dT*dT*d[5mC]*lT*eA*e[5mC]*eA*eG)
experimental target: human ABCB11 mRNA
quantity kind: ABCB11 mRNA FC (5 μM ASO vs. UNT)
meas value: 1.85
--
substance: CO-7193: derivative ASO with additional chemical modifications based on parent ASO CO-4535 (eT*eG*eG*e[5mC]*eG*lT*eT*eA*eT*eT*lA*eA*eT*eT*e[5mC]*lT*eA*e[5mC]*eA*eG)
experimental target: human ABCB11 mRNA
quantity kind: ABCB11 mRNA FC (5 μM ASO vs. UNT)
meas value: 1.555

Please turn your attention to the following entry.
Q: Param readout = ABCB11 mRNA FC (5 μM ASO vs. UNT); param system = human ABCB11 mRNA; param query = CO-4523 (antisense eT*e[5mC]*eT*eG*e[5mC]*eA*eA*eA*eT*eT*eA*eA*eG*eA*eA*eG*e[5mC]*eA*e[5mC]eT) ; response: value
Ans: 1.037

Origin of measurements: patent US20250320496A1
